meta.source: patent US20240101708A1

# ASSAY_TARGET: T1, recombinant human RNF43 extracellular domain (human, UniProt Q68DV7 24-197)
# T1 construct: extracellular domain; also called huRNF43; human RNF43 ECD
# T1 sequence (looked up): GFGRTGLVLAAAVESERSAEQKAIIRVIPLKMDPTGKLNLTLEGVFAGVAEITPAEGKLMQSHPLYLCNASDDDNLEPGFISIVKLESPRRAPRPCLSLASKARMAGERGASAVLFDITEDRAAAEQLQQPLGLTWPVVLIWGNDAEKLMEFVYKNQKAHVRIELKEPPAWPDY
# ASSAY_METHOD_TEXT: SPR Biacore 8K; antibody captured on Protein A; RNF43 ECD analyte; 25 C
Listing of recorded log10(Kd) by entry.
MEASURE_NAME: log10(Kd) (log10 of the value in nM)

| BINDER | OBSERVED |
| --- | --- |
| RNF43-21 (antibody, V domains shown, Rabbit clone; VH/VL only) VH: QSLEESGGDLVKPGASLTLTCTASGFSFSSSYYMCWVRQAPGKGLEWIACIYAGSSGSTYYASWAKGRFTVSKTSSTTVTLQMTSLTAADTATYFCARYTYGSGSDSYFNLWGPGTLVTVSS VL: AYDMTQTPASVEAAVGGTVTIQCQASQSIGSYLAWYQQKPGQPPKLLIYRASTLSSGVPSRFKGSGSGTQFTLTISDLECADAATYYCQQGYSITNLDNGFGGGTEVVVK | 1.01 |
| RNF43-106 (antibody, V domains shown, Rat clone; VH/VL only) VH: QIQLGQSGPELTKPGESVKISCKASGYTFSDYPIHWVKQAPGKGLKWMGWINTYTGKPTFADDFKGRFVFSLEASASTANLQISNLKNEDTATYFCALGPISTVFYAMDAWGQGTSVTVSS VL: DIQMTQSPSFLSASVGDRVTINCKASQNINKYLNWYQQKLGEAPKRLIYNTNNLQTGIPSRFSGSGSGTDYTLTISSLQPEDFATYFCLQHNSFPYTFGAGTKLELK | 1.19 |
| RNF43-11 (antibody, V domains shown, Rabbit clone; VH/VL only) VH: QEQLVESGGGLVQPEGSLTLTCKASGFDFSSNVMCWVRQAPGKGLEWIGCIYTGSSGSTYYASWAKGRFTITRSTSLNTVTLQMTSLTAADTATYFCARYVSGGEYYNLWGPGTLVTVSS VL: ALVMTQTPASVEAAVGGTVTINCQASESISNWLAWYQQKPGQPPKLLIYKASTLASGVSSRFKGSGSGTQFTLTISDLECADAATYYCQQGSSWINIEDVFGGGTEVVVK | 1.44 |
| RNF43-67 (antibody, V domains shown, Rat clone; VH/VL only) VH: AVQLVESGGGSVQPGRSMRLSCAASGFTFSNYDMTWVRQAPTKGLEWVASITSDGGSTYSRDSVKGRFTISRDNAKSTLYLQMDSLRSEDTATYYCTTDRGRYLPYYFDYWGQGVMVTVSA VL: DVVLTQTPVSLSVTVGDQASISCRSSQSLEYSDGYSYLEWYLQKPGQSPQLLIYEVSSRFSGVPDRFIGSGSGTDFTLKISRVEPEDLGVYYCFQAIHDPTFGAGTKLELK | -0.23 |
| RNF43-104 (antibody, V domains shown, Rat clone; VH/VL only) VH: QVQLKESGPGLVQPSQTLSLTCSVSGFSLTSFHVHWVRQPPGKGLEWMGLMWSNGDTSYNSDLKSRLSISRDTSKSQVFLKMHSLQTEDTATYYCARTDVYHGFGAMDAWGQGTSVTVSS VL: DIQMTQSPSFLSASLGNSITITCHASQFIKGWLAWYQQKSGNAPELLIYKSSSLHSGVPSRFSGSGSGTDYILTISNLQPEDIATYYCQHYQGFPLTFGSGTKLEIK | 0.96 |
| RNF43-152 (antibody, V domains shown, Rat clone; VH/VL only) VH: QVTLKESGPGILQPSQTLSLTCTFSGSSLSTYGMGVGWIRQPSGKGLEWLANIWWDDDKYYNPSLKNRLTISKDTSNNQSFLKIANVDTADTATYYCARIDGTYNYFDYWGQGVMVTVSS VL: DVVLTQTPSRLSATIGQSVSISCRSSQSLLDSYGNTYLSWFLQRPGQSPQRLIFLVSNLGSGVPNRVSGSGSGTDFTLKISGVEAEDLGVYYCMQTTHDPLTFGSGTKLEIK | 1.25 |
